test.target: Mitogen-activated protein kinase 1 (Homo sapiens, UniProt P28482)
Sequence (P28482 whole entry): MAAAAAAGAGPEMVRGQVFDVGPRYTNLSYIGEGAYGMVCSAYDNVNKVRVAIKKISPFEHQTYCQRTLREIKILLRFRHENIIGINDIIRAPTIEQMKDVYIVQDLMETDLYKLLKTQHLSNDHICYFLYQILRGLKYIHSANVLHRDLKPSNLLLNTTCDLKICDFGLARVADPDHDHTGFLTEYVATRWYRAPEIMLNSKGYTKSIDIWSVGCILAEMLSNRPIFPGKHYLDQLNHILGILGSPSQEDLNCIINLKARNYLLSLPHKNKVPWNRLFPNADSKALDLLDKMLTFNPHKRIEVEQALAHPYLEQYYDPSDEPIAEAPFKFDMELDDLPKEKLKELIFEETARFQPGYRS
protocol.details: Inhibition of ERK2 (unknown origin) using kinase substrate 8 incubated for 40 mins in presence of ATP by mobility shift assay
Each entry below carries its reported IC50.
Enter your answer as a number in nM; do not include the unit.

Lookup: Answer with the recorded IC50 of Cc1c(-c2cnn(C)c2)nnc(N2CCC(NC(=O)Nc3ccc(Oc4nc(NC5CCOCC5)ncc4Cl)cc3)CC2)c1C only.
Found: 41

Lookup: Please report the measured IC50 for Cc1c(-c2ccnn2C)nnc(N2CCC(NC(=O)c3ccc(NC(=O)c4ccnc(NC5CCOCC5)n4)cc3C(F)(F)F)CC2)c1C
Found: 3320

Lookup: Report IC50, nothing else, for this compound: Cn1cc(-c2ccc(N3CCC(NC(=O)Nc4ccc(Oc5nc(NC6CCOCC6)ncc5Cl)cc4)CC3)nn2)cn1
Found: 164

Lookup: Assign IC50 to the following record: Cc1c(-c2ccnn2C)nnc(N2CCC(NC(=O)Nc3ccc(Oc4ccnc(NC5CCOCC5)n4)cc3)CC2)c1C
Found: 1320

----------
Recorded inhibition for the following compounds
test.target: Protein smoothened (Mus musculus) (UniProt P56726)
Sequence (P56726 whole entry): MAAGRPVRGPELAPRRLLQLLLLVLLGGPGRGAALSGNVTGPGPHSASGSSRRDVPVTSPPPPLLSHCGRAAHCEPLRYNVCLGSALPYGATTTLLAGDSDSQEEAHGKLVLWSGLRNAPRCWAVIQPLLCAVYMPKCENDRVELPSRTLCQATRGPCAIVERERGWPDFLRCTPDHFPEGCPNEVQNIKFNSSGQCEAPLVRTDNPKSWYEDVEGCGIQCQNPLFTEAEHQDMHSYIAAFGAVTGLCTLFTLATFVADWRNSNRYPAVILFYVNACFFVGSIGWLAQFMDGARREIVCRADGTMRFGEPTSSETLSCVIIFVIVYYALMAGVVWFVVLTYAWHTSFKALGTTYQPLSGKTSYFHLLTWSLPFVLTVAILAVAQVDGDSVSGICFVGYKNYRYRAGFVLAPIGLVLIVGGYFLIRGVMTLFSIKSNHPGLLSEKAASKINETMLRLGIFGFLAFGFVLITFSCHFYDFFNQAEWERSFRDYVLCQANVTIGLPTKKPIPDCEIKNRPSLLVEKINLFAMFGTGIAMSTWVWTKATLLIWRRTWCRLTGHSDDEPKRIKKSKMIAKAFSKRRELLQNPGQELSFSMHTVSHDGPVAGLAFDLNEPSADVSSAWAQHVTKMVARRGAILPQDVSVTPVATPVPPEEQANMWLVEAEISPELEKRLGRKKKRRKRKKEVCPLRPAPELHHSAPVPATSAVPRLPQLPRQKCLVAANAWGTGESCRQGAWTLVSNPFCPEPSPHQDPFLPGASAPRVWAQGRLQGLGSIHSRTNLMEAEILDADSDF
protocol.details: Inhibition of SMO in mouse 3T3/HH FlashII-7 cells at 100 nM incubated for 36 hrs in presence of SHH by Gli-luciferase reporter assay
Format: cell-based
The figure you give is taken to be in %; do not add the unit.

Here is how some compounds turned out for inhibition.
>  <mol.smiles>
Cc1c(-c2ccnn2C)nnc(N2CCC(NC(=O)Nc3ccc(Oc4nc(NC5CCOCC5)ncc4Cl)cc3)CC2)c1C

>  <inhibition / %>
89.9

$$$$
>  <mol.smiles>
Cc1c(-c2ccnn2C)nnc(N2CCC(NC(=O)c3ccc(NC(=O)c4ccnc(NC5CCOCC5)n4)cc3C(F)(F)F)CC2)c1C

>  <inhibition / %>
68.2

$$$$
>  <mol.smiles>
Cn1nccc1-c1ccc(N2CCC(NC(=O)Nc3ccc(Oc4nc(NC5CCOCC5)ncc4Cl)cc3)CC2)nn1

>  <inhibition / %>
68.5

$$$$

Attention now shifts to the item below.
Lookup: Write inhibition of Cc1c(-c2ccnn2C)nnc(N2CCC(NC(=O)Nc3ccc(Oc4ccnc(NC5CCOCC5)n4)cc3)CC2)c1C ; system used: Protein smoothened (Mus musculus) (UniProt P56726)
Found: 90.4

----------
test.target: Mitogen-activated protein kinase 1 (Homo sapiens)
protocol.details: Inhibition of ERK2 (unknown origin) using kinase substrate 8 at 100 nM incubated for 40 mins in presence of ATP by mobility shift assay
Reported inhibition values for a set of compounds
The response must be a number in % with no trailing unit.

Use these answered entries as a reference point.
>  <mol.smiles>
Cn1nccc1-c1ccc(N2CCC(NC(=O)Nc3ccc(Oc4nc(NC5CCOCC5)ncc4Cl)cc3)CC2)nn1

>  <test.target>
Mitogen-activated protein kinase 1 (Homo sapiens)

>  <measurement.label>
inhibition

>  <recorded.number>
46.4

$$$$
>  <mol.smiles>
Cc1c(-c2ccnn2C)nnc(N2CCC(NC(=O)Nc3ccc(Sc4nc(NC5CCOCC5)ncc4Cl)cc3)CC2)c1C

>  <test.target>
Mitogen-activated protein kinase 1 (Homo sapiens)

>  <measurement.label>
inhibition

>  <recorded.number>
91.2

$$$$
>  <mol.smiles>
Cc1c(-c2ccnn2C)nnc(N2CCC(NC(=O)Nc3ccc(Oc4nc(Nc5ccnn5C)ncc4Cl)cc3)CC2)c1C

>  <test.target>
Mitogen-activated protein kinase 1 (Homo sapiens)

>  <measurement.label>
inhibition

>  <recorded.number>
1.1

$$$$

Okay, next one:
Lookup: Fill in inhibition for record Cc1c(-c2ccnn2C)nnc(N2CCC(NC(=O)Nc3ccc(Sc4nc(NC5CCOCC5)ncc4C(F)(F)F)cc3)CC2)c1C
Found: 84.2

----------
test.target: Protein smoothened (Mus musculus)
Sequence (P56726 whole entry): as the sequence (P56726 whole entry) above
protocol.details: Inhibition of SMO in mouse 3T3/HH FlashII-7 cells incubated for 36 hrs in presence of SHH by Gli-luciferase reporter assay
measurement.label: IC50 (nM)
I only need the number, in nM, no unit after it.

>  <molecule>
Cc1c(-c2ccnn2C)nnc(N2CCC(NC(=O)Nc3ccc(Oc4nc(NC5CCOCC5)ncc4C(F)(F)F)cc3)CC2)c1C

>  <test.target>
Protein smoothened (Mus musculus)

>  <recorded.number>
190

$$$$

Lookup: Could you please provide reported IC50 for CN(C(=O)c1ccc(F)cc1C(F)(F)F)C1CCN(c2nnc(-c3ccnn3C)c3ccccc23)CC1 [TALADEGIB] ? Thanks!
Found: 1.18

Lookup: Please give measured IC50 of the following entry: Cc1c(-c2ccnn2C)nnc(N2CCC(NC(=O)Nc3ccc(Sc4nc(NC5CCOCC5)ncc4Cl)cc3)CC2)c1C
Found: 17.6

Lookup: State, in one line, measured IC50 of Cc1c(-c2ccnn2C)nnc(N2CCC(NC(=O)Nc3ccc(Nc4nc(NC5CCOCC5)ncc4Cl)cc3)CC2)c1C
Found: 63.9
